Read-out: ABC Transporter (ABCB1), ABCB1 (gene 5243)
Experimental Details: LTEA_HepaRG_ABCB1: Life Technologies and Expression Analysis (LTEA) Assay for ABC Transporter (ABCB1) using HepaRG (AID 2283460)
Run Conditions: mRNA level, 48 h; actives raise or lower the signal
Active and inactive are the calls of the source. How the source made its calls: active means hit-call score of the fitted dose curve at least 0.9, where 1 is the maximum; inactive means score below 0.9.
Classes used: active, inactive

Cpd Smiles | Group
CCN(CC)c1ccccc1 | inactive
CCOc1ccc(C(C)(C)COCc2cccc(Oc3ccccc3)c2)cc1 | active
O=[N+]([O-])c1ccc(Cl)c(Cl)c1 | inactive
ClC(Cl)c1ccccc1 | inactive

----------
Read-out: E-selectin (Homo sapiens) (UniProt P16581)
Sequence (P16581 whole entry, looked up): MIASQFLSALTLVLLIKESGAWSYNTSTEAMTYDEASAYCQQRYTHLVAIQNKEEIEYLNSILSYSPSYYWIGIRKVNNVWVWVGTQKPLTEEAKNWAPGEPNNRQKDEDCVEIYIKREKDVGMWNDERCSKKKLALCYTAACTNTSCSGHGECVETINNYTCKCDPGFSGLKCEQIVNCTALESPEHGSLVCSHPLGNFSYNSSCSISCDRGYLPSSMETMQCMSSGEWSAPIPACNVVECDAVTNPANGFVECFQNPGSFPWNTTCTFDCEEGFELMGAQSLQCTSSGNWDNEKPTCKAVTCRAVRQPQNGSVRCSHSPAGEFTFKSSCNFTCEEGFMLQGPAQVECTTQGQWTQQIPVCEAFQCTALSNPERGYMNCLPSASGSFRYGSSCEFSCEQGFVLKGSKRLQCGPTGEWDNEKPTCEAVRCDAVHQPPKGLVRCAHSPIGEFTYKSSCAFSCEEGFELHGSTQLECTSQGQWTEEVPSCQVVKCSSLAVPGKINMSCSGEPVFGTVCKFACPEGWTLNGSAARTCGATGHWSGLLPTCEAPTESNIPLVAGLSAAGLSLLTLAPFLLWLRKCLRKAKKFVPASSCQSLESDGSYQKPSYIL
Experimental Details: BSK_LPS_Eselectin: BioMAP Diversity Plus: LPS Assay for Eselectin Biomarker Activity (AID 2283077)
Run Conditions: primary human HUVEC with PBMC; actives raise or lower the signal
Active and inactive are the calls of the source. The calls were made as follows: active = hit-call score of the fitted dose curve at least 0.9, where 1 is the maximum; inactive = score below 0.9.

Compound | outcome
CN(C)C(=O)Cl | inactive
CC(Cc1ccc(OCC(=O)O)cc1)NCC(O)c1csc(C(F)(F)F)n1 (stereo not drawn) | inactive
ClC(Cl)(Cl)c1ccccc1 | inactive

----------
Read-out: Human Leukocyte Antigen - DR isotype (HLADR), HLA-DRA (gene 3122)
Experimental Details: BSK_CASM3C_HLADR: BioMAP Diversity Plus: CASM3C Assay for Human Leukocyte Antigen - DR isotype (HLADR) Biomarker Activity (AID 2283043);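 further: cell-surface HLA-DR protein level quantified by ELISA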
Run Conditions: primary human coronary artery smooth muscle cells; actives raise or lower the signal
Active and inactive are the calls of the source. The calls were made as follows: active = hit-call score of the fitted dose curve at least 0.9, where 1 is the maximum; inactive = score below 0.9.
Classes used: active, inactive

Molecule | Group
Cc1ccc(O)cc1C | inactive
O=C(O)C(F)(F)C(F)(F)C(=O)O | inactive
O=c1ssc(Cl)c1Cl | active
CCOS(=O)(=O)OCC | inactive
Nc1ccc([N+](=O)[O-])cc1Cl | inactive
CCN(CC)c1ccccc1 | inactive
Cc1ccc([N+](=O)[O-])cc1C | inactive
ClC(Cl)=C(c1ccc(Cl)cc1)c1ccccc1Cl | active
CCOP(=S)(OCC)SCSCC | inactive
Cc1c([N+](=O)[O-])cc2c(c1[N+](=O)[O-])C(C)(C)CC2(C)C | active
FC(F)(F)C(F)(C(F)(F)F)C(F)(F)C(F)(F)CC1CO1 (stereo unspecified) | inactive

----------
Read-out: Interleukin-8 (IL8), CXCL8 (gene 3576)
Experimental Details: BSK_CASM3C_IL8: BioMAP Diversity Plus: CASM3C Assay for Interleukin-8 (IL8) Biomarker Activity (AID 2283042);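 further: IL-8 protein level quantified by ELISA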
Run Conditions: primary human coronary artery smooth muscle cells; actives raise or lower the signal
Active and inactive are the calls of the source. How the source made its calls: active means hit-call score of the fitted dose curve at least 0.9, where 1 is the maximum; inactive means score below 0.9.
Outcomes: active, inactive

Compound | Group
Cc1ccc2c(c1N)C(=O)c1ccccc1C2=O | inactive
ClC(Cl)=C(c1ccc(Cl)cc1)c1ccccc1Cl | inactive
OCC1CO1 (stereo not given) | inactive
c1ccc2c(c1)sc1ccccc12 | inactive
CC(Cl)(Cl)C(=O)O | inactive
CN(C)C(=O)Cl | inactive
CSC(C)(C)C=NO | inactive
N#Cc1cc([N+](=O)[O-])ccc1N | inactive
O=P(Oc1ccccc1)(Oc1ccccc1)Oc1ccccc1 | inactive
N#Cc1c(-c2ccc(Cl)cc2)[nH]c(C(F)(F)F)c1Br | active

----------
Measured On: Hepatocyte nuclear factor 6 (Homo sapiens) (UniProt Q9UBC0)
Sequence (Q9UBC0 whole entry, looked up): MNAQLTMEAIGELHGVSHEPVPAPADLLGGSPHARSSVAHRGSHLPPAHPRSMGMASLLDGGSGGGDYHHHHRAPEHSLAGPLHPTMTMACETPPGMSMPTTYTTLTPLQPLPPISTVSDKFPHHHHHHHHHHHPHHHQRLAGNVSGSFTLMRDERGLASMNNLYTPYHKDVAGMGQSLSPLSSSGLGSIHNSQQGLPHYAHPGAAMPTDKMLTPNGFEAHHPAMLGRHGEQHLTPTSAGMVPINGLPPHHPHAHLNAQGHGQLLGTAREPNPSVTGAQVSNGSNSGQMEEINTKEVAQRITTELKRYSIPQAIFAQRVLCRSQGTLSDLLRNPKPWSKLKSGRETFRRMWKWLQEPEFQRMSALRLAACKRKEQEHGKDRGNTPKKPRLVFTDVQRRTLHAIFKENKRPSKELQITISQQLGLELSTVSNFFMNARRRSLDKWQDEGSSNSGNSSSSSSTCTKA
Experimental Details: ATG_HNF6_CIS: Attagene CIS-FACTORIAL HepG2 Assay for human Hepatocyte Nuclear Factor 6 (HNF6) (AID 2282952)
Run Conditions: HepG2 Attagene cis-factorial HNF6 reporter transcription; actives raise or lower the signal
Calls of active or inactive are those of the source. The calls were made as follows: active = hit-call score of the fitted dose curve at least 0.9, where 1 is the maximum; inactive = score below 0.9.
Outcomes: 1 for active, -1 for inactive

Compound | Measured On | Group
Oc1ccc(I)cc1 | Hepatocyte nuclear factor 6 (Homo sapiens) (UniProt Q9UBC0) | -1
Cn1[nH]nnc1=S | Hepatocyte nuclear factor 6 (Homo sapiens) (UniProt Q9UBC0) | -1
CC(Cl)CN(C)C (centres undefined) | Hepatocyte nuclear factor 6 (Homo sapiens) (UniProt Q9UBC0) | -1
CCCCC(CC)COC(=O)c1c(Br)c(Br)c(Br)c(Br)c1C(=O)OCC(CC)CCCC (centres undefined) | Hepatocyte nuclear factor 6 (Homo sapiens) (UniProt Q9UBC0) | -1
CCOP(=O)(O)C(N)=O | Hepatocyte nuclear factor 6 (Homo sapiens) (UniProt Q9UBC0) | -1
O=P1(N(CCCl)CCCl)NCCCO1 (centres undefined) | Hepatocyte nuclear factor 6 (Homo sapiens) (UniProt Q9UBC0) | -1
O=C(CBr)OCc1ccccc1 | Hepatocyte nuclear factor 6 (Homo sapiens) (UniProt Q9UBC0) | -1
CCOP(=S)(OCC)SCn1nnc2ccccc2c1=O | Hepatocyte nuclear factor 6 (Homo sapiens) (UniProt Q9UBC0) | -1
Cc1ccc2c(c1N)C(=O)c1ccccc1C2=O | Hepatocyte nuclear factor 6 (Homo sapiens) (UniProt Q9UBC0) | -1
O=P(Oc1ccccc1)(Oc1ccccc1)Oc1ccccc1 | Hepatocyte nuclear factor 6 (Homo sapiens) (UniProt Q9UBC0) | -1
O=C(O)C(F)(F)C(F)(F)C(=O)O | Hepatocyte nuclear factor 6 (Homo sapiens) (UniProt Q9UBC0) | -1
O=S(=O)(F)C(F)(F)C(F)(F)C(F)(F)C(F)(F)C(F)(F)C(F)(F)C(F)(F)C(F)(F)F | Hepatocyte nuclear factor 6 (Homo sapiens) (UniProt Q9UBC0) | -1
FC(F)(F)c1ccc(Cl)cc1 | Hepatocyte nuclear factor 6 (Homo sapiens) (UniProt Q9UBC0) | -1
COCCOCCO | Hepatocyte nuclear factor 6 (Homo sapiens) (UniProt Q9UBC0) | -1
c1ccc2c(c1)sc1ccccc12 | Hepatocyte nuclear factor 6 (Homo sapiens) (UniProt Q9UBC0) | -1
CCCCc1ccccc1 | Hepatocyte nuclear factor 6 (Homo sapiens) (UniProt Q9UBC0) | -1
CCC(C)(C)c1ccc(O)cc1 | Hepatocyte nuclear factor 6 (Homo sapiens) (UniProt Q9UBC0) | -1
O=C(O)C1C(C(=O)O)C2(Cl)C(Cl)=C(Cl)C1(Cl)C2(Cl)Cl (centres undefined) | Hepatocyte nuclear factor 6 (Homo sapiens) (UniProt Q9UBC0) | -1
CCOP(=S)(NC(C)C)Oc1ccccc1C(=O)OC(C)C (centres undefined) | Hepatocyte nuclear factor 6 (Homo sapiens) (UniProt Q9UBC0) | -1
CCCCN(CCCC)N=O | Hepatocyte nuclear factor 6 (Homo sapiens) (UniProt Q9UBC0) | -1
O=[N+]([O-])c1cc(Cl)ccc1Cl | Hepatocyte nuclear factor 6 (Homo sapiens) (UniProt Q9UBC0) | -1
NNC(N)=S | Hepatocyte nuclear factor 6 (Homo sapiens) (UniProt Q9UBC0) | -1
Nc1ccc(Sc2ccc(N)cc2)cc1 | Hepatocyte nuclear factor 6 (Homo sapiens) (UniProt Q9UBC0) | -1
COP(=O)(CCC(=O)NCO)OC | Hepatocyte nuclear factor 6 (Homo sapiens) (UniProt Q9UBC0) | -1
CCOc1ccc(C(C)(C)COCc2cccc(Oc3ccccc3)c2)cc1 | Hepatocyte nuclear factor 6 (Homo sapiens) (UniProt Q9UBC0) | -1
CCOP(=S)(OCC)SCSCC | Hepatocyte nuclear factor 6 (Homo sapiens) (UniProt Q9UBC0) | -1
CC1=C(C(=O)Nc2ccccc2)S(=O)(=O)CCO1 | Hepatocyte nuclear factor 6 (Homo sapiens) (UniProt Q9UBC0) | 1
CCNc1nc(Cl)nc(NC(C)(C)C)n1 | Hepatocyte nuclear factor 6 (Homo sapiens) (UniProt Q9UBC0) | -1
CC(=O)c1ccc(-c2ccccc2)cc1 | Hepatocyte nuclear factor 6 (Homo sapiens) (UniProt Q9UBC0) | -1
COP(=O)(O)OC | Hepatocyte nuclear factor 6 (Homo sapiens) (UniProt Q9UBC0) | -1
O=NN1CCCC1 | Hepatocyte nuclear factor 6 (Homo sapiens) (UniProt Q9UBC0) | -1
CC(Cc1ccc(OCC(=O)O)cc1)NCC(O)c1csc(C(F)(F)F)n1 (centres undefined) | Hepatocyte nuclear factor 6 (Homo sapiens) (UniProt Q9UBC0) | -1
Cc1cccc(N)c1 | Hepatocyte nuclear factor 6 (Homo sapiens) (UniProt Q9UBC0) | -1
C/C(=N\NC(=O)Nc1cc(F)cc(F)c1)c1ncccc1C(=O)O | Hepatocyte nuclear factor 6 (Homo sapiens) (UniProt Q9UBC0) | -1
C=CC(=O)OCC(CC)(COC(=O)C=C)COC(=O)C=C | Hepatocyte nuclear factor 6 (Homo sapiens) (UniProt Q9UBC0) | -1
c1cc2c3c(cccc3c1)CC2 | Hepatocyte nuclear factor 6 (Homo sapiens) (UniProt Q9UBC0) | -1
NC(=O)C(F)(F)C(F)(F)F | Hepatocyte nuclear factor 6 (Homo sapiens) (UniProt Q9UBC0) | -1
C=CC(=O)OCC(F)(F)C(F)F | Hepatocyte nuclear factor 6 (Homo sapiens) (UniProt Q9UBC0) | -1
Cc1cc(C)c(C(=O)P(=O)(c2ccccc2)c2ccccc2)c(C)c1 | Hepatocyte nuclear factor 6 (Homo sapiens) (UniProt Q9UBC0) | 1
Clc1ccc(Oc2ccccc2)cc1 | Hepatocyte nuclear factor 6 (Homo sapiens) (UniProt Q9UBC0) | -1
CC(Cl)(Cl)C(=O)O | Hepatocyte nuclear factor 6 (Homo sapiens) (UniProt Q9UBC0) | -1
N#Cc1cc([N+](=O)[O-])ccc1N | Hepatocyte nuclear factor 6 (Homo sapiens) (UniProt Q9UBC0) | -1
ClC(Cl)c1ccccc1 | Hepatocyte nuclear factor 6 (Homo sapiens) (UniProt Q9UBC0) | -1
CCOP(=S)(Oc1ccc([N+](=O)[O-])cc1)c1ccccc1 (centres undefined) | Hepatocyte nuclear factor 6 (Homo sapiens) (UniProt Q9UBC0) | -1
Nc1ccc([N+](=O)[O-])cc1Cl | Hepatocyte nuclear factor 6 (Homo sapiens) (UniProt Q9UBC0) | -1
CCOC(=O)c1ccccc1C(=O)OCC | Hepatocyte nuclear factor 6 (Homo sapiens) (UniProt Q9UBC0) | -1
ClC(Cl)=C(c1ccc(Cl)cc1)c1ccccc1Cl | Hepatocyte nuclear factor 6 (Homo sapiens) (UniProt Q9UBC0) | -1
Nc1ccc2ccccc2c1 | Hepatocyte nuclear factor 6 (Homo sapiens) (UniProt Q9UBC0) | -1
O=[N+]([O-])c1ccc(Cl)c(Cl)c1 | Hepatocyte nuclear factor 6 (Homo sapiens) (UniProt Q9UBC0) | -1
Nc1cc2c3c(c1)C(c1ccccc1)=N[C@@H](NC(=O)c1cccnc1)C(=O)N3CC2 | Hepatocyte nuclear factor 6 (Homo sapiens) (UniProt Q9UBC0) | -1
O=C(O)C(F)(F)OC(F)(F)C(F)(F)OC(F)(F)F | Hepatocyte nuclear factor 6 (Homo sapiens) (UniProt Q9UBC0) | -1
O=C(O)C(F)(OC(F)(F)C(F)(F)C(F)(F)F)C(F)(F)F (centres undefined) | Hepatocyte nuclear factor 6 (Homo sapiens) (UniProt Q9UBC0) | -1
O=S1(=O)OCC2C(CO1)C1(Cl)C(Cl)=C(Cl)C2(Cl)C1(Cl)Cl (centres undefined) | Hepatocyte nuclear factor 6 (Homo sapiens) (UniProt Q9UBC0) | -1
N#Cc1ccc(O)cc1 | Hepatocyte nuclear factor 6 (Homo sapiens) (UniProt Q9UBC0) | -1

Ref: PubChem BioAssay (EPA / NIEHS)
